Reference source for all entries: paper PMC10906075

# Test system: FAM-labeled phenylalanine aptamer (DNA, aptamer) CTCTCGGGACGACGAGGCTGGATGCATTCGCCGGATGTTCGATGTCGTCCC
# protocol.summary: strand-displacement fluorescence assay (FAM/dabcyl)
# assay.setup: PBS (~150 mM salt), 2 mM MgCl2, dabcyl quencher strand GTCGTCCCGAGAG (S4) displaced, 50 nM aptamer, 150 nM quencher, ~40 min, ambient
measured.property: binding

>>> print(df.to_string())
                        smiles_data  measured_property  reported_value
0  N[C@@H](Cc1c[nH]c2ccccc12)C(=O)O            binding              no
1          NC(=O)[C@@H](N)Cc1ccccc1            binding             yes
2       N[C@@H](Cc1ccc(O)cc1)C(=O)O            binding              no
3          N[C@@H](Cc1ccccc1)C(=O)O            binding             yes

Okay, next one:
Task: So what's the measured binding for this one? "NCCc1ccccc1"
Output: weak
